studySystem: Ae. aegypti NPYLR7 (Aedes aegypti, UniProt U5N1H5)
Sequence (U5N1H5 entry or part of it): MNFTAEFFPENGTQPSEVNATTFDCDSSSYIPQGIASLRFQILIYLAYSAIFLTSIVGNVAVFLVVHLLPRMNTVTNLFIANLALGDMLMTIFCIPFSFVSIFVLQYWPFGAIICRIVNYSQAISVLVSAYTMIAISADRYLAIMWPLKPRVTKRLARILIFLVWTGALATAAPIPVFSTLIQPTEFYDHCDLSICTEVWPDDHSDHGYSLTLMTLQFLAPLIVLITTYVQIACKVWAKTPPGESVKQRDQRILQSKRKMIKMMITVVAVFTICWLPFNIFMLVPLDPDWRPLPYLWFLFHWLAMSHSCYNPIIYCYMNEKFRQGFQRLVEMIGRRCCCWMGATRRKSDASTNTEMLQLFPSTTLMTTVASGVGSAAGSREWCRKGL
testDetails: In vitro calcium (GCaMP6s) FLIPR assay in HEK293T cells transfected with NPYLR7
Assay type: cell-based
conditionSet: HEK-293T, 11.1111 uM; single replicate, normalised response
Experimental: The in vitro screening assay was adapted from, and carried out at HD Biosciences (HDB, Shanghai) as follows: HEK293T (Thermo Fisher Scientific) cells were grown in Dulbecco’s modified Eagle medium (DMEM) (high glucose, with glutamine), 10% fetal bovine serum, 1% penicillin–streptomycin (Pen/Strep), seeded in a 75 cm^2 flask, and incubated at 37 °C and 5% CO2. […] Data were collected in raw fluorescence units (RFU). […]
observable: activation at 11.1111 µM (%)
Field format: number, assumed %, no unit text.

Some molecules with known activation at 11.1111 µM results, for comparison:
Cc1nc(NC(=N)N)nc2cc(OCc3ccc(OC(F)(F)F)cc3)ccc12 [TDI-014172] ... 57
CNc1nc(NC(=N)N)nc2cc(OCc3ccc(OC)cc3)c(OC)cc12 [TDI-014185] ... 79.9
Cc1nc(NC(=N)N)nc2cc(OCC3CCCCC3)ccc12 [TDI-014169] ... 78.4
CCCOc1ccc2c(C)nc(NC(=N)N)nc2c1 [TDI-014178] ... 86.6
Cc1nc(NC(=N)N)nc2cc(OCc3ccc(OC(F)F)cc3)ccc12 [TDI-014170] ... 80.9

Req: # query: activation at 11.1111 µM | item COc1ccc(COc2ccc3c(C)nc(NC(=N)N)nc3c2)cc1OC [TDI-014180] | system: Ae. aegypti NPYLR7 (Aedes aegypti, UniProt U5N1H5)
Resp: 74

Req: Next molecule: Cc1nc(NC(=N)N)nc2cc(OCC3CC3)ccc12 [TDI-014171]
Resp: 63.8

Req: Another molecule to look at: CNc1nc(NC(=N)N)nc2cc(OCc3ccccc3)c(OC)cc12 [TDI-014184]
Resp: 91.4

Req: Now the same for COc1ccc(OCc2ccc3c(C)nc(NC(=N)N)nc3c2)cc1 [TDI-014175]
Resp: 98.4

Req: And Cc1nc(NC(=N)N)nc2cc(OCC3CCCCO3)ccc12 (centres unmarked) [TDI-014192] ?
Resp: 55.1

Req: Proceed to Cc1nc(NC(=N)N)nc2cc(OCc3ccc(S(C)(=O)=O)cc3)ccc12 [TDI-014182]
Resp: 90.2

Req: Try CCOc1ccc(COc2ccc3c(C)nc(NC(=N)N)nc3c2)cc1 [TDI-014176] next.
Resp: 88

Req: Queued: CNc1nc(NC(=N)N)nc2cc(OCc3ccc(OC)cc3)ccc12 [TDI-014190]
Resp: 69.9

Req: Moving on to COc1ccc(COc2ccc3c(C)nc(NC(=N)N)nc3c2)cn1 [TDI-014173]
Resp: 74.1
